Measured growth, listed per entry.
test system: M14 melanoma; assay: NCI-60 one-dose screen, 48 h (100 = growth as untreated, 0 = no growth, -100 = all killed); conditions: 10 µM unless noted
Compounds without any hit were thinned out: in the full panel of roughly 83,000, 20% have a hit.
Respond numerically; units are % and should not be typed.

Previously resolved entries follow.
Ask | Could you share which growth value was measured for `O=[N+]([O-])c1ccc(-c2cc3c(Nc4ccc(OCc5cccc(Cl)c5)c(Cl)c4)ncnc3s2)cc1` ?
Reply | 35.9

Ask | Give its growth value. Item: `COc1ccc(CN2C(=O)/C(=C\c3cc(OC)c(OC)c(OC)c3)c3ccccc32)cc1`
Reply | -32

Ask | Recorded growth for `CCN(CC)S(=O)(=O)c1ccc(O)c(NC(=O)c2[nH]c(C)c(C(C)=O)c2CCc2ccc(Cl)cc2)c1` , please?
Reply | 56.8

Ask | Value lookup for growth; key = CCOc1cc(C2C(Cl)C(=O)N2n2cnnc2)ccc1O (stereo not given)
Reply | 95.4

Ask | Entry under review: `CCCCCCCC/C=C\CCCCCCCC(=O)Oc1cccc2cccnc12` . Reported growth?
Reply | 90.3

---
Ask | Fill in: growth of CCC(=O)OC1=C(C)SC2=NC(c3ccc(Cl)c(Cl)c3)=CC(c3cc(OC)c(OC)c(OC)c3)N21 (stereo not given) is ___
Reply | 106

Ask | Report growth for `CCCNCC(=O)Nc1ccc(C(=O)OC(C)(C)CC)cc1` please.
Reply | 96.8
